IC50 for assorted compounds
Molecular target: Human recombinant PDE3A (hPDE3A) (Homo sapiens)
Construct: purchased Scottish Biomedical; host or cells: Sf9 insect cells
Experiment: In vitro assay PDE3A (SPA, 3H-cAMP hydrolysis);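 note: the method names PDE3A and the table heading PDE3B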
Assay type: biochemical
Conditions: hPDE3B pIC50; read-out: pIC50 (converted)
Measured Property: IC50 (µM)

Molecule Smiles | Target | Reading Unit | Qualifying Sign | Recorded Value
COc1ccc(C(=O)N2CC[C@@H](C)[C@H](c3cc(C(F)F)nc4ncnn34)C2)cn1 | Human recombinant PDE3A (hPDE3A) (Homo sapiens) | µM | = | 4.9
O=C(c1cnc2c(Cl)cccc2c1)N1[C@H]2CC[C@H](c3cc(C(F)F)nc4ncnn34)[C@@H]1CC2 | Human recombinant PDE3A (hPDE3A) (Homo sapiens) | µM | = | 3.89
COc1ncc(C(=O)N2CC[C@@H](C)[C@H](c3cc(C(F)F)nc4ncnn34)C2)cc1Cl | Human recombinant PDE3A (hPDE3A) (Homo sapiens) | µM | = | 2.24
C[C@@H]1CCN(C(=O)c2cc(F)cc(C#N)c2)C[C@H]1c1cc(C(F)F)nc2ncnn12 | Human recombinant PDE3A (hPDE3A) (Homo sapiens) | µM | > | 10
Cc1ccc(C(=O)N2CC[C@@H](C)[C@H](c3cc(C(F)F)nc4ncnn34)C2)nc1C | Human recombinant PDE3A (hPDE3A) (Homo sapiens) | µM | = | 7.76
O=C(c1cccc2ccccc12)N1[C@H]2CC[C@H](c3cc(C(F)F)nc4ncnn34)[C@@H]1CC2 | Human recombinant PDE3A (hPDE3A) (Homo sapiens) | µM | > | 10
COc1cc(C(=O)N2[C@H]3CC[C@H](c4cc(C(F)F)nc5ncnn45)[C@@H]2CC3)ccc1Cl | Human recombinant PDE3A (hPDE3A) (Homo sapiens) | µM | = | 3.24
Cc1ccc2cc(C(=O)N3[C@H]4CC[C@H](c5cc(C(F)F)nc6ncnn56)[C@@H]3CC4)c(C)nc2c1 | Human recombinant PDE3A (hPDE3A) (Homo sapiens) | µM | > | 10
COc1c(C)cc(C(=O)N2CC[C@@H](C)[C@](F)(c3cc(C(F)F)nc4ncnn34)C2)cc1C | Human recombinant PDE3A (hPDE3A) (Homo sapiens) | µM | > | 10
COc1c(F)cc(C(=O)N2CC[C@@H](C)[C@H](c3cc(C(F)F)nc4ncnn34)C2)cc1F | Human recombinant PDE3A (hPDE3A) (Homo sapiens) | µM | = | 0.933
CN(C)c1ccc(C(=O)N2[C@H]3CC[C@H](c4cc(C(F)F)nc5ncnn45)[C@@H]2CC3)cc1 | Human recombinant PDE3A (hPDE3A) (Homo sapiens) | µM | = | 0.871
O=C(c1cccc2cccnc12)N1[C@H]2CC[C@H](c3cc(C(F)F)nc4ncnn34)[C@@H]1CC2 | Human recombinant PDE3A (hPDE3A) (Homo sapiens) | µM | > | 10
O=C(c1ccc2occc2c1)N1[C@H]2CC[C@H](c3cc(C(F)F)nc4ncnn34)[C@@H]1CC2 | Human recombinant PDE3A (hPDE3A) (Homo sapiens) | µM | = | 4.79
Cc1cc(C(=O)N2CC[C@@H](C)[C@H](c3cc(C(F)F)nc4ncnn34)C2)no1 | Human recombinant PDE3A (hPDE3A) (Homo sapiens) | µM | > | 10

* * *

Molecular target: Human recombinant PDE3A (hPDE3A) (Homo sapiens, UniProt Q14432)
Construct: purchased Scottish Biomedical; host or cells: Sf9 insect cells
Sequence (Q14432 whole entry): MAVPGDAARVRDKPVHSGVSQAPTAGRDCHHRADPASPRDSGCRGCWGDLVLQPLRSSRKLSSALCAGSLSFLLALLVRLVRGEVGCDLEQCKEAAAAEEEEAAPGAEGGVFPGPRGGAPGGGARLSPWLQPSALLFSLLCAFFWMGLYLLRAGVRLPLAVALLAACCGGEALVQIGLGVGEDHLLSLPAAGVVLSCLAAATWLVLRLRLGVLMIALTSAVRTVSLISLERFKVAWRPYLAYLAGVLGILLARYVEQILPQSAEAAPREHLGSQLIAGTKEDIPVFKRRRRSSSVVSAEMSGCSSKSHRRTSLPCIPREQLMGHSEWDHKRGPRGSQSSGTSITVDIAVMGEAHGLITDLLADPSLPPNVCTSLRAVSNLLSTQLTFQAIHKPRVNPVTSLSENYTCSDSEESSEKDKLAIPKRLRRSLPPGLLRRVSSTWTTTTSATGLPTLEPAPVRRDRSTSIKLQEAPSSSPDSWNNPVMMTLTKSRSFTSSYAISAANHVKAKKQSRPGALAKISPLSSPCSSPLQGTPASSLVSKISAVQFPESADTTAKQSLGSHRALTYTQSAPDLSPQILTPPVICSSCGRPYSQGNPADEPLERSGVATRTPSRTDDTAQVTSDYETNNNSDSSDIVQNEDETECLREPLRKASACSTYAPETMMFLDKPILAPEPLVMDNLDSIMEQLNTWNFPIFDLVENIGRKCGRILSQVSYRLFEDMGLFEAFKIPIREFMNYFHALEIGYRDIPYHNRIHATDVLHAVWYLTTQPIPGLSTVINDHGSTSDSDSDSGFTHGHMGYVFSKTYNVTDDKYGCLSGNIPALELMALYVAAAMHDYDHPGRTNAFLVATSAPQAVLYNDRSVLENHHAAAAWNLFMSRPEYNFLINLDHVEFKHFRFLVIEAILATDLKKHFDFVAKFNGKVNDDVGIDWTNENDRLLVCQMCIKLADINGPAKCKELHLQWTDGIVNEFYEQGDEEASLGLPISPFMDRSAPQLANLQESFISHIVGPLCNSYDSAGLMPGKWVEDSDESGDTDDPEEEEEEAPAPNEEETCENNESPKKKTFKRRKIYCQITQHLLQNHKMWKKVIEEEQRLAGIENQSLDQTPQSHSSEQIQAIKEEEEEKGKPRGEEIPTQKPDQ
Experiment: In vitro assay PDE3A (SPA, 3H-cAMP hydrolysis);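 note: the method names PDE3A and the table heading PDE3B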
Assay type: biochemical
Details: read-out: hPDE3B Emax; read-out: Emax
Quick rule: Emax of at least 60% means class 1, below that means class 0.

Molecule Smiles | Target | Assigned Label
Cc1cc(C(=O)N2CC[C@@H](C)[C@H](c3cc(C(F)F)nc4ncnn34)C2)cc(OC(F)F)n1 | Human recombinant PDE3A (hPDE3A) (Homo sapiens, UniProt Q14432) | class 1
C[C@@H]1CCN(C(=O)c2ccc3nccn3c2)C[C@H]1c1cc(C(F)F)nc2ncnn12 | Human recombinant PDE3A (hPDE3A) (Homo sapiens, UniProt Q14432) | class 0
Cc1cc(C(=O)N2[C@H]3CC[C@H](c4cc(C(F)F)nc5ncnn45)[C@@H]2CC3)cc(C(F)(F)F)n1 | Human recombinant PDE3A (hPDE3A) (Homo sapiens, UniProt Q14432) | class 0
O=C(c1ccc(F)c(OC(F)F)c1)N1[C@H]2CC[C@H](c3cc(C(F)F)nc4ncnn34)[C@@H]1CC2 | Human recombinant PDE3A (hPDE3A) (Homo sapiens, UniProt Q14432) | class 0
Cc1cc(C(=O)N2[C@H]3CC[C@H](c4cc(C(F)F)nc5ncnn45)[C@@H]2CC3)c(F)cn1 | Human recombinant PDE3A (hPDE3A) (Homo sapiens, UniProt Q14432) | class 0
C[C@@H]1CCN(C(=O)c2cccc(OC(F)(F)F)c2F)C[C@H]1c1cc(C(F)F)nc2ncnn12 | Human recombinant PDE3A (hPDE3A) (Homo sapiens, UniProt Q14432) | class 1

* * *

Target: Human recombinant PDE3A (hPDE3A) (Homo sapiens)
Construct: purchased Scottish Biomedical; host or cells: Sf9 insect cells
Assay: In vitro assay PDE3A (SPA, 3H-cAMP hydrolysis);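 note: the method names PDE3A and the table heading PDE3B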
Type: biochemical
Conditions: read-out: hPDE3B Emax; read-out: Emax
Emax for assorted compounds

Compound | Target | Reading Unit | Emax
Cc1cc([C@@H]2CN(C(=O)c3cc(C4CC4)ncc3F)CC[C@H]2C)n2ncnc2n1 [Compound 224] | Human recombinant PDE3A (hPDE3A) (Homo sapiens) | % | 87
Cc1cnoc1C(=O)N1CC[C@@H](C)[C@H](c2cc(C(F)F)nc3ncnn23)C1 [Compound 160] | Human recombinant PDE3A (hPDE3A) (Homo sapiens) | % | 34
Cc1c(C(=O)N2CC[C@@H](C)[C@H](c3cc(C(F)F)nc4ncnn34)C2)ccc2c1OCO2 [Compound 145] | Human recombinant PDE3A (hPDE3A) (Homo sapiens) | % | 86
Cn1ccc2cc(C(=O)N3[C@H]4CC[C@H](c5cc(C(F)F)nc6ncnn56)[C@@H]3CC4)cc(F)c21 [Compound 374] | Human recombinant PDE3A (hPDE3A) (Homo sapiens) | % | 97
Cc1cc(C(=O)N2CC[C@@H](C)[C@H](c3cc(C(F)F)nc4ncnn34)C2)c(F)c(C(F)(F)F)n1 [Compound 396] | Human recombinant PDE3A (hPDE3A) (Homo sapiens) | % | 56

* * *

Target: Human recombinant PDE2A (hPDE2A) (Homo sapiens)
Construct: His tag (inferred from metal chelate purification); made in house; host or cells: Sf9 insect cells (baculovirus)
Sequence (O00408 whole entry): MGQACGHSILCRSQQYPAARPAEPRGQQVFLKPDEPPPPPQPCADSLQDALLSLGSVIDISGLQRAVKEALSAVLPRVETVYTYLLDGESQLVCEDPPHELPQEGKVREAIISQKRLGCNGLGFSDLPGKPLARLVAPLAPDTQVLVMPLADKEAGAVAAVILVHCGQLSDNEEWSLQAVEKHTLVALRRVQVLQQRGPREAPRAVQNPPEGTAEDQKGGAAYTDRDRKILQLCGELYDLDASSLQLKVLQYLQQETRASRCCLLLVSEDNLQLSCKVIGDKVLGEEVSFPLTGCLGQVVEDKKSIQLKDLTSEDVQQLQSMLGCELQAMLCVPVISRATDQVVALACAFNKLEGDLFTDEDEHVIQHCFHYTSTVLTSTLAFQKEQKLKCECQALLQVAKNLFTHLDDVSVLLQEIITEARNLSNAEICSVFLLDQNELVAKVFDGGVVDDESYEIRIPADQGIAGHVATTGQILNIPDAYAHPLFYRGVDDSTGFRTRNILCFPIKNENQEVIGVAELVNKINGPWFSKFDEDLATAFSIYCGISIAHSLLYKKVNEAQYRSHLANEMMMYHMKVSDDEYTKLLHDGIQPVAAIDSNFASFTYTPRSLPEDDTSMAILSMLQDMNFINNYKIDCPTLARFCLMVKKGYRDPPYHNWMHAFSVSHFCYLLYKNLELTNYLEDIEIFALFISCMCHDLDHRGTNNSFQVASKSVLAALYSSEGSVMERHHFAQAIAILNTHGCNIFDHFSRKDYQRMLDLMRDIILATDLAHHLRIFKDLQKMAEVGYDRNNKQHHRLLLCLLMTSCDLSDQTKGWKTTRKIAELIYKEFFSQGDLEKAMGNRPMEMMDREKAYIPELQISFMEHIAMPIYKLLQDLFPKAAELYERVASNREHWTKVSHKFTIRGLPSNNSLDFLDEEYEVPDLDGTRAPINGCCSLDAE
Assay: In vitro assay PDE2A (SPA, 3H-cGMP hydrolysis)
Type: biochemical
Details: read-out: hPDE2A Emax

Molecule | Emax / %
COc1ccc(C(=O)N2[C@H]3CC[C@H](c4cc(C(F)F)nc5ncnn45)[C@@H]2CC3)cc1Cl [Compound 376] | 101
C[C@@H]1CCN(C(=O)c2cc3ccccc3n2C)C[C@H]1c1cc(C(F)F)nc2ncnn12 [Compound 114] | 100
C[C@@H]1CCN(C(=O)c2ccc3ncsc3c2)C[C@H]1c1cc(C(F)F)nc2ncnn12 [Compound 228] | 100
C[C@@H]1CCN(C(=O)c2ccc(C3CC3)c(C3CC3)c2)C[C@H]1c1cc(C(F)F)nc2ncnn12 [Compound 226] | 100
C[C@@H]1CCN(C(=O)c2ccn3cccc3c2)C[C@H]1c1cc(C(F)F)nc2ncnn12 [Compound 90] | 101
C[C@@H]1CCN(C(=O)c2cccc3c2ncn3C)C[C@H]1c1cc(C(F)F)nc2ncnn12 [Compound 178] | 101
CC1(c2ccnc3ncnn23)CCCN(C(=O)c2ccc3occc3c2)C1 (centres unmarked) [Compound 202] | 30
C[C@@H]1CCN(C(=O)c2cccc(C(C)(C)C#N)c2)C[C@H]1c1cc(C(F)F)nc2ncnn12 [Compound 175] | 100
COc1nc(N)ncc1C(=O)N1CC[C@@H](C)[C@H](c2cc(C(F)F)nc3ncnn23)C1 [Compound 38] | 100
C[C@@H]1CCN(C(=O)c2cc(C(C)(C)C)nc(C(C)(C)C)c2)C[C@H]1c1cc(C(F)F)nc2ncnn12 [Compound 266] | 100
Cc1cc(Cl)cc(C(=O)N2[C@H]3CC[C@H](c4cc(C(F)F)nc5ncnn45)[C@@H]2CC3)c1 [Compound 339] | 101
Cc1cc(C)cc(C(=O)N2CCC[C@](C)(c3cc(C(F)F)nc4ncnn34)C2)c1 (single isomer, unassigned) [Compound 206] | 39
Cc1cc(C(=O)N2CC[C@@H](C)[C@H](c3cc(C(F)F)nc4ncnn34)C2)cc(C(C)C)n1 [Compound 101] | 101
C[C@@H]1CCN(C(=O)c2cc3ccccc3o2)C[C@H]1c1cc(C(F)F)nc2ncnn12 [Compound 69] | 102
COc1cccc2c1OCC(C(=O)N1[C@H]3CC[C@H](c4cc(C(F)F)nc5ncnn45)[C@@H]1CC3)=C2 [Compound 296] | 99
Cc1coc2ccc(C(=O)N3CC[C@@H](C)[C@H](c4cc(C(F)F)nc5ncnn45)C3)cc12 [Compound 92] | 100
COc1c(F)cc(C(=O)N2[C@H]3CC[C@H](c4cc(C(F)F)nc5ncnn45)[C@@H]2CC3)cc1F [Compound 359] | 99
Cc1cc(C#N)cc(C(=O)N2CC[C@@H](C)[C@H](c3cc(C(F)F)nc4ncnn34)C2)c1 [Compound 131] | 98
C[C@@H]1CCN(C(=O)c2ccncc2N)C[C@H]1c1cc(C(F)F)nc2ncnn12 [Compound 142] | 100
Cc1cc([C@@H]2CN(C(=O)c3cc4cccnc4nc3C(F)(F)F)CC[C@H]2C)n2ncnc2n1 [Compound 13] | 100
